B1: TRIM63 (parent)
chain: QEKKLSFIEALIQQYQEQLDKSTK

# Variants of: B1
# test.name: protein stability index of a GFP-peptide fusion (GPS, HEK-293T) (PSI 1-6); higher = more stable;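 note: lentivirally expressed fusions sorted by FACS into six bins by GFP to DsRed ratio, PSI derived from sequencing read proportions per bin multiplied by bin number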
# conditions.used: c terminus: a fixed tail appended
quantity.measured: protein stability index
Please respond with just the number, no unit label.

L11V : 2.65
K3L : 2.15
L11N : 4.78
K24A : 2.25

// moving on: another record for protein stability index
Recorded protein stability index for E17I , please? 2.14
